Kindly supply the reported hGLP-1R EC50 (pM), cAMP values for the records listed here.
- Assay target: human GLP-1 receptor (human, UniProt P43220 24-463)
- Assay info: cell-based or functional assay
Starred links: 1 amine or outer side, 2 acyl side, 3 side chain; linkers in the order of their positions; H or OH if unused. Non-standard residues stand in square brackets, D forms with d. Groups on a side chain read outwards from the residue. No end group written: not given here. *: point of attachment. C20 diacid = O=C(O)CCCCCCCCCCCCCCCCCCC(=O)*; C18 diacid = O=C(O)CCCCCCCCCCCCCCCCC(=O)*; γGlu = O=C(O)[C@H](CCC(=O)[*:2])N[*:1]; αMeF = C[C@](N)(Cc1ccccc1)C(=O)O; (PEG)2 = polyethylene glycol 2; AEEA = NCCOCCOCC(=O)O; Aib = CC(C)(N)C(=O)O
The response must be a number in pM with no trailing unit.

Request: May I ask what hGLP-1R EC50 (pM), cAMP has been recorded for H[Aib]HGS[αMeF]TSDVSK[αMeF]LDSRAAK([AEEA-AEEA-C20 diacid])D[αMeF]VQ[Aib]IANT-NH2 [Peptide 277] ?
Result: 49.5

Request: May I ask what hGLP-1R EC50 (pM), cAMP has been recorded for H[Aib]HGS[αMeF]TSDVSK[αMeF]LDSRAAK([AEEA-AEEA-γGlu-γGlu-C20 diacid])D[αMeF]VQ[Aib]IANT-NH2 (also: S2: Aib per table, X6: αMePhe, F per table) [Peptide 282] ?
Result: 1230

Request: May I ask what hGLP-1R EC50 (pM), cAMP has been recorded for H[Aib]HGS[αMeF]TSDVSK[αMeF]LDSRAAK([(PEG)2-(PEG)2-γGlu-γGlu-C20 diacid])D[αMeF]VQ[Aib]IANT-NH2 [Peptide 264] ?
Result: 69.5

Request: May I ask what hGLP-1R EC50 (pM), cAMP has been recorded for H[Aib]HGS[αMeF]TSDVSK[αMeF]LDSRAAK([AEEA-γGlu-AEEA-C20 diacid])D[αMeF]VQ[Aib]IANT-NH2 [Peptide 265] ?
Result: 71.2

Request: May I ask what hGLP-1R EC50 (pM), cAMP has been recorded for H[Aib]HGS[αMeF]TSDVSK[αMeF]LDSRAAK([γGlu-C20 diacid])D[αMeF]VQ[Aib]IANT-NH2 [Peptide 276] ?
Result: 143

Request: May I ask what hGLP-1R EC50 (pM), cAMP has been recorded for H[Aib]HGS[αMeF]TSDVSK[αMeF]LDSR[Aib]AK([AEEA-γGlu-C18 diacid])DFVESIANT-NH2 [Peptide 253] ?
Result: 75.5

Request: May I ask what hGLP-1R EC50 (pM), cAMP has been recorded for H[Aib]HGS[αMeF]TSDVSK[αMeF]LDSRAAK([AEEA-AEEA-γGlu-γGlu-C20 diacid])D[αMeF]VQ[Aib]IANT-OH [Peptide 304] ?
Result: 239

Request: May I ask what hGLP-1R EC50 (pM), cAMP has been recorded for H[Aib]HGS[αMeF]TSDVSKYLDSRAAK([AEEA-AEEA-γGlu-C18 diacid])D[αMeF]VQ[Aib]IANT-NH2 (also: F6: αMePhe per table, X13: αMePhe, Y per table) [Peptide 286] ?
Result: 31.6

Request: May I ask what hGLP-1R EC50 (pM), cAMP has been recorded for H[Aib]HGS[αMeF]TSDVSK[αMeF]LDSRAAK([AEEA-γGlu-γGlu-C18 diacid])D[αMeF]VQ[Aib]IANT-NH2 [Peptide 274] ?
Result: 27.1

Source: patent US20230357348A1
